B1: Hairpin Ribozyme (parent)
chain: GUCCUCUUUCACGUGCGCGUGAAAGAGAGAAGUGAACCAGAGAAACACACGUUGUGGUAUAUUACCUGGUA

Variants of: B1
experimental-protocol: self-cleavage, relative activity (ratio to wild type); higher = more cleavage; co-transcriptional
reported-property: self-cleavage

# variant-notation, meas-value
records = [
    ("U5G U70A", 0.204),
    ("U8C U52C", 0.405),
    ("G19U U33C", 0.202),
]

All figures here come from the RNAGym collection of RNA variant scans (doi:10.7554/elife.80360).
